- TEST DESCRIPTION: ATG_Oct_MLP_CIS: Attagene CIS-FACTORIAL HepG2 Assay for human Octamer-Binding Transcription Factor (Oct) (AID 2282993)
- CONDITION LABEL: HepG2 Attagene cis-factorial Oct reporter, mRNA; actives raise or lower the signal
Active and inactive are the calls of the source. How the source made its calls: active means hit-call score of the fitted dose curve at least 0.9, where 1 is the maximum; inactive means score below 0.9.
Possible outcomes: YES = active, NO = inactive

| COMPOUND | CLASS ASSIGNMENT |
| --- | --- |
| C=C1C[C@H]2[C@@H]3C=C(C)C4=CC(=O)CC[C@]4(C)[C@H]3CC[C@]2(C)[C@@]1(OC(C)=O)C(C)=O | NO |
| C1CCSC1 | NO |
| CC(C)(c1ccccc1)c1ccc(Nc2ccc(C(C)(C)c3ccccc3)cc2)cc1 | NO |
| CC(CC=O)CC(C)(C)C (stereo not drawn) | NO |
| CCCCCCCCCCCC(C)=O | NO |
| CCOC(=O)C1=NOC(c2ccccc2)(c2ccccc2)C1 | NO |
| CCCCOC(=O)C(C)CC (stereo not drawn) | NO |
| CCCCNC(=S)NCCCC | NO |
| C=CC(=O)O[C@H]1C[C@@H]2CC[C@@]1(C)C2(C)C | NO |
| CC/C=C\CCOC(=O)c1ccccc1O | NO |
| C=Cc1cccc(C)c1 | NO |
| CCOC(=O)c1ccccc1C | NO |
| C[Si](C)(C)N[Si](C)(C)C | NO |
| Cc1cc(C)c(C=O)c(C)c1 | NO |
| NNS(=O)(=O)c1ccc(Oc2ccc(S(=O)(=O)NN)cc2)cc1 | NO |
| CCCC(C)C(=O)OCC (stereo not drawn) | NO |
| O=C(O)/C=C/c1ccccc1 | NO |
| CC1=CC=C(C(C)C)CC1 | NO |
| c1ccc(-c2nc3ccccc3[nH]2)cc1 | NO |
| Clc1cc(Cl)c(Cl)c(Cl)c1Cl | NO |
| O=C(O)c1ccc2c(c1)C(=O)OC2=O | NO |
| N#CC1(N)CCCCC1 | NO |
| CC1=CC(C)C(C=O)CC1 (stereo not drawn) | NO |
| CCCCCCCCCC[N+](C)(CCCCCCCCCC)CCC[Si](OC)(OC)OC | NO |
| CCc1occc(=O)c1O | NO |
| CC1(C)C(=O)N(CO)C(=O)N1CO | NO |
| CC(C)c1ccc2ncccc2c1 | NO |
| CCCc1ccc(O)c(OC)c1 | NO |
| C=C(C)C1CC=C(C)CC1 (stereo not drawn) | NO |
| Nc1ccnc(=O)[nH]1 | NO |
| c1ccc(Nc2cccc3ccccc23)cc1 | YES |
| O=C(Nc1ccccc1)c1cc(Cl)ccc1O | YES |
| C=CCCCCCCCCC=O | NO |
| CCC(C)C(=O)OC (stereo not drawn) | NO |
| COc1ccc(C(=O)c2ccccc2)c(O)c1 | NO |
| N=C1C=CC(=C(c2ccc(N)cc2)c2ccc(N)cc2)C=C1 | NO |
| CCN1CCCC1=O | NO |
| C=C(C)C(=O)OCCCCCCCCCCCC | NO |
| COC(=O)CC(C)CCC=C(C)C (stereo not drawn) | NO |
| C/C=C/C=C/CCCCCCCO | NO |
| CCCCNS(=O)(=O)c1ccccc1 | NO |
| Cc1ccc2c(c1)CCCN2 | NO |
| CC(C)C(=O)OCCc1ccccc1 | NO |
| CCC(C)C(=O)OCCc1ccccc1 (stereo not drawn) | NO |
| COCC(=O)O | NO |
| CC1CCC(=O)C1=O (stereo not drawn) | NO |
| Cc1c[nH]c(=O)[nH]c1=O | NO |
| CCOc1ccc(NC(N)=O)cc1 | NO |
| O=C1CCCCCCCCCCCN1 | NO |
| Nc1ccc(Cl)c(N)c1 | NO |
| O=C1CCCN1C1CCCCC1 | NO |
| C=CCOC(=O)c1ccc(C(=O)OCC=C)c(C(=O)OCC=C)c1 | NO |
| CC(C)=NNC(N)=S | NO |
| C=CC(=O)NC(C)(C)C | NO |
| CCCCCC1=CCCC1=O | NO |
| CCc1cccc(CC)c1 | NO |
| CCCCNS(=O)(=O)c1ccc(C)cc1 | NO |
| Oc1ccc(/C=C/c2cc(O)cc(O)c2)cc1 | NO |
| Cc1noc(NS(=O)(=O)c2ccc(N)cc2)c1C | NO |
| CCCCCCCC(=O)OCC(COC(=O)CCCCCCC)OC(=O)CCCCCCC | NO |
| CCOC(=O)CC(=O)c1ccccc1 | NO |
| O=C(O)C1CCC(C(=O)O)CC1 (stereo not drawn) | NO |
| CCCCc1ccc(Cl)cc1 | NO |

---

- TARGET SYSTEM: Nucleoli Translocation, AR (gene 367)
- TEST DESCRIPTION: UPITT_HCI_U2OS_AR_TIF2_Nucleoli_Agonist: University of Pittsburgh U2OS Androgen Receptor-Transcriptional Intermediary Factor 2 (AR-TIF2) Agonism High Content Imaging Assay for Nucleoli Translocation (AID 2283998)
Results filed as inconclusive are left out. The source made the active and inactive calls. How the source made its calls: active means hit-call score of the fitted dose curve at least 0.9, where 1 is the maximum; inconclusive means response in the unintended direction; inactive means score below 0.9.
MEASUREMENT KIND: AC50

| MOLECULE | RESULT |
| --- | --- |
| O=C(O)c1ccc2c(c1)C(=O)OC2=O | inactive |
| CCCCCC[C@@H](O)C/C=C\CCCCCCCC(=O)OCC(O)CO (stereo partly specified) | inactive |
| CCCCCCCCCCCCCC(=O)OC(C)C | inactive |
| N#Cc1ccc(C(c2ccc(C#N)cc2)n2cncn2)cc1 | inactive |
| Oc1ccc(-c2ccccc2)c(Cl)c1 | 13.4 µM (active) |
| C=C1C[C@H]2[C@@H]3C=C(C)C4=CC(=O)CC[C@]4(C)[C@H]3CC[C@]2(C)[C@@]1(OC(C)=O)C(C)=O | 4 µM (active) |

---

- TARGET SYSTEM: human Caspase 5 (CASP5), CASP5 (gene 838)
- TEST DESCRIPTION: NVS_ENZ_hCASP5: NovaScreen (NVS) Enzymatic Assay for human Caspase 5 (CASP5) (AID 2283137)
Results filed as inconclusive are left out. The source made the active and inactive calls. How the source made its calls: active means hit-call score of the fitted dose curve at least 0.9, where 1 is the maximum; inconclusive means response in the unintended direction; inactive means score below 0.9.
Possible outcomes: yes for active, no for inactive

| QUERY SMILES | TARGET SYSTEM | CLASS ASSIGNMENT |
| --- | --- | --- |
| CO[Si](CCCS)(OC)OC | human Caspase 5 (CASP5), CASP5 (gene 838) | yes |
| CCOC(=O)/C=C\C(=O)OCC | human Caspase 5 (CASP5), CASP5 (gene 838) | no |
| COc1ccc(C(=O)/C(Br)=C\C(=O)O)cc1 | human Caspase 5 (CASP5), CASP5 (gene 838) | yes |
| Fc1ccc(Br)cc1 | human Caspase 5 (CASP5), CASP5 (gene 838) | no |

---

- TEST DESCRIPTION: ATG_M_32_CIS: Attagene CIS-FACTORIAL HepG2 Assay for M32 Transcription Factor (Internal Marker) (AID 2282949);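 further: background control marker of the multiplexed CIS panel rather than a real target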
- CONDITION LABEL: HepG2 Attagene cis-factorial M32 reporter, mRNA; actives raise or lower the signal
The source made the active and inactive calls. The calls were made as follows: active = hit-call score of the fitted dose curve at least 0.9, where 1 is the maximum; inactive = score below 0.9.
MEASUREMENT KIND: outcome

| QUERY SMILES | MEASUREMENT KIND | RESULT |
| --- | --- | --- |
| CCCCCCCCCCCCCC(=O)OC(C)C | outcome | inactive |
| CCNc1nc(NC(C)(C)C)nc(OC)n1 | outcome | inactive |
| NNS(=O)(=O)c1ccc(Oc2ccc(S(=O)(=O)NN)cc2)cc1 | outcome | inactive |
| CCN(CC)c1cccc(C)c1 | outcome | inactive |
| Oc1c(Cl)cc(Cl)c(Cl)c1Cl | outcome | inactive |
| CCCCc1ccc(Cl)cc1 | outcome | inactive |
| c1ccc(Nc2cccc3ccccc23)cc1 | outcome | inactive |
| CC(C)=NNC(N)=S | outcome | inactive |
| COC(=O)C=Cc1ccccc1 | outcome | inactive |
| CC(C)=CCl | outcome | inactive |
| C/C=C/C=C/CCCCCCCO | outcome | inactive |
| O=C(Oc1ccccc1)c1ccccc1C(=O)Oc1ccccc1 | outcome | inactive |
| Cc1cc(C)n(CO)n1 | outcome | inactive |
| C[Si]1(C)O[Si](C)(C)O[Si](C)(C)O[Si](C)(C)O[Si](C)(C)O1 | outcome | inactive |
| Cc1c(O)cccc1O | outcome | inactive |

---

- TEST DESCRIPTION: ATG_MRE_CIS: Attagene CIS-FACTORIAL HepG2 Assay for human Metal Responsive Element (MRE) (AID 2282954)
- CONDITION LABEL: HepG2 MRE cis-reporter transcription, Attagene multiplex; actives raise or lower the signal
Active and inactive are the calls of the source. The calls were made as follows: active = hit-call score of the fitted dose curve at least 0.9, where 1 is the maximum; inactive = score below 0.9.
Possible outcomes: true (1) (active), false (0) (inactive)

| COMPOUND | CLASS ASSIGNMENT |
| --- | --- |
| CC(=O)/C=C/C1C(C)=CCCC1(C)C (stereo not given) | false (0) |
| CCOC(=O)OC(=O)OCC | false (0) |
| Nc1ccnc(=O)[nH]1 | false (0) |
| CC(=O)OCCc1ccccc1 | false (0) |
| Oc1ccc(/C=C/c2cc(O)cc(O)c2)cc1 | false (0) |
| CCCCCCCCCC[N+](C)(CCCCCCCCCC)CCC[Si](OC)(OC)OC | false (0) |
| CC1CCC(=O)C1=O (stereo not given) | false (0) |
| Nc1nc(N)nc(-c2ccccc2)n1 | false (0) |
| COc1ccc(C(=O)/C(Br)=C\C(=O)O)cc1 | true (1) |
| CCC1(C)C(=O)N(Cl)C(=O)N1Cl (stereo not given) | true (1) |
| N#Cc1ccc(C2CCCc3cncn32)cc1 (stereo not given) | false (0) |
| N#CC1(N)CCCCC1 | false (0) |
| CN(C)Cc1cc(CN(C)C)c(O)c(CN(C)C)c1 | false (0) |
| c1ccc(Nc2cccc3ccccc23)cc1 | true (1) |
| COC(Cc1ccccc1)OC | false (0) |
